All figures here come from the supplement of paper PMC10307832.

System: SW 1573
Test: relative viability (nuclei count vs DMSO), 5 days (fraction); higher = more cells survive
Settings: first compound 0.1 µM
Label Y when relative viability is strictly below 0.3; at or above that, label N.

* Cc1cn(-c2cc(NC(=O)c3ccc(C)c(Nc4nccc(-c5cccnc5)n4)c3)cc(C(F)(F)F)c2)cn1 [Nilotinib] + CC(=O)c1c(C)c2cnc(Nc3ccc(N4CCNCC4)cn3)nc2n(C2CCCC2)c1=O [Palbociclib] (partner 0.5 µM) | N
* Cc1cn(-c2cc(NC(=O)c3ccc(C)c(Nc4nccc(-c5cccnc5)n4)c3)cc(C(F)(F)F)c2)cn1 [Nilotinib] + Cc1nc(NC(=O)N2CCC[C@H]2C(N)=O)sc1-c1ccnc(C(C)(C)C(F)(F)F)c1 [Alpelisib] (partner 2 µM) | N
* Cc1cn(-c2cc(NC(=O)c3ccc(C)c(Nc4nccc(-c5cccnc5)n4)c3)cc(C(F)(F)F)c2)cn1 [Nilotinib] + O=C(c1cc(Cc2n[nH]c(=O)c3ccccc23)ccc1F)N1CCN(C(=O)C2CC2)CC1 [Olaparib] (partner 8 µM) | N
* Cc1cn(-c2cc(NC(=O)c3ccc(C)c(Nc4nccc(-c5cccnc5)n4)c3)cc(C(F)(F)F)c2)cn1 [Nilotinib] + Cc1nc(Nc2ncc(C(=O)Nc3c(C)cccc3Cl)s2)cc(N2CCN(CCO)CC2)n1 [Dasatinib] (partner 0.075 µM) | Y
* Cc1cn(-c2cc(NC(=O)c3ccc(C)c(Nc4nccc(-c5cccnc5)n4)c3)cc(C(F)(F)F)c2)cn1 [Nilotinib] + CCNC(=O)c1noc(-c2cc(C(C)C)c(O)cc2O)c1-c1ccc(CN2CCOCC2)cc1 [Luminespib] (partner 0.01 µM) | Y
